Reported growth values for the following compounds.
Test system: UACC-62 melanoma
Experiment: NCI-60 one-dose screen, 48 h (100 = growth as untreated, 0 = no growth, -100 = all killed)
Settings: 10 µM unless noted
Experimental: Growth inhibition of the UACC-62 human tumor cell line is measured as a screen for anti-cancer activity. Cells are grown in 96 well plates and exposed to the test compound for 48 hours. Compounds are tested at a single concentration, which is 10^-5 M for most compounds. The reported endpoint is percent growth (GI% or GIPRCNT), where numbers from 0 - 100% represent growth inhibition, and numbers from -100% - 0 represent cell death. For example, a value of 40 represents 60% growth inhibition. […]
About 83,000 compounds went through this panel and 20% of them were active in at least one assay; those are over-represented in the sample as a whole.
endpointLabel: growth (%)

>  <compound>
CC(=O)Nc1ccc(/C=C2\SC(=S)N(/C=C(\C(C)=O)C(N)=O)C2=O)cc1

>  <reportedValue>
87.6

$$$$
>  <compound>
BrCc1cccc(C[P+](c2ccccc2)(c2ccccc2)c2ccccc2)c1

>  <reportedValue>
54.7

$$$$
>  <compound>
C#CC(O)c1ccccc1 (stereo not drawn)

>  <reportedValue>
103

$$$$
>  <compound>
NC(=O)OCCO

>  <reportedValue>
100

$$$$
>  <compound>
O=[N+]([O-])c1ccc(-c2nc(N(CCO)CCO)c3ccccc3n2)o1

>  <reportedValue>
-71.6

$$$$
>  <compound>
Cc1ccc([N+](=O)[O-])c(C)n1

>  <reportedValue>
107

$$$$
>  <compound>
CCOc1ccc(C(=O)O)cc1

>  <reportedValue>
104

$$$$
>  <compound>
O=C(O)Cc1ccc(Cl)cc1

>  <reportedValue>
110

$$$$
>  <compound>
CCCC(=O)c1cccs1

>  <reportedValue>
95.1

$$$$
>  <compound>
CCOC(=O)CNC

>  <reportedValue>
94.8

$$$$
>  <compound>
CN(C)c1ccc(O)c2c1CC1CC3C(N(C)C)C(=O)C(C(N)=O)=C(O)C3(O)C(=O)C1=C2O (stereo not drawn)

>  <reportedValue>
29

$$$$
>  <compound>
Cc1ccc(S(N)(=O)=O)cc1Cl

>  <reportedValue>
105

$$$$
>  <compound>
COC(=O)c1cccc([N+](=O)[O-])c1

>  <reportedValue>
98.7

$$$$

###

test system: OVCAR-5 ovarian; assay: NCI-60 one-dose screen, 48 h (100 = growth as untreated, 0 = no growth, -100 = all killed); conditions: 10 µM unless noted
Compounds without any hit were thinned out: in the full panel of roughly 83,000, 20% have a hit.
Reported growth values for the following compounds.

>  <compound>
O=c1cc(C(F)(F)F)[nH]c(=S)[nH]1

>  <growth [%]>
102

$$$$
>  <compound>
Nc1nc2nnc(-c3ccccc3)c(-c3ccccc3)n2n1

>  <growth [%]>
86.3

$$$$
>  <compound>
NC(CSSCC(N)C(=O)O)C(=O)O (configuration not stated)

>  <growth [%]>
-5.59

$$$$
>  <compound>
Nc1c(Br)cc(O)c2c1C(=O)c1ccccc1C2=O

>  <growth [%]>
112

$$$$
>  <compound>
C=C1C(=O)C2CCN1CC2

>  <growth [%]>
99.6

$$$$
>  <compound>
CCCCCC(=O)OCCC1CCCCC1

>  <growth [%]>
105

$$$$
>  <compound>
O=S(=O)(c1ccc(NC(=S)NCc2cccnc2)cc1)N1CCCCC1

>  <growth [%]>
59.8

$$$$
>  <compound>
CCOc1ccc(C(=O)NCC(C)C)cc1

>  <growth [%]>
105

$$$$
>  <compound>
CC(=O)[C@@]1(O)CC[C@H]2[C@@H]3CC[C@@H]4CC(=O)CC[C@]4(C)[C@H]3[C@@H](O)C[C@@]21C

>  <growth [%]>
91.7

$$$$
>  <compound>
C#CCSc1nnnn1-c1ccccc1

>  <growth [%]>
92

$$$$
>  <compound>
Cc1cccc(C)c1NC(=S)/N=C\c1c(O)[nH]c(=O)[nH]c1=O

>  <growth [%]>
109

$$$$
>  <compound>
Clc1cccc(Cl)c1C1CSc2ccccc2N=C1c1ccccc1 (configuration not stated)

>  <growth [%]>
101

$$$$
